test system: Antibody to AB-Pinaca-KLH (raised against immunogen 2 of Example 6); assay: Competitive ELISA characterising antibodies to AB-Pinaca-KLH with Tracer-1 (Example 9); type: binding; conditions: standard conc 20.00 ng/ml
MEASURED_METRIC: OD (absorbance at 450 nm)
Kindly provide the number alone.

Some solved entries appear below for comparison.
- MOLECULE: "CC(C)C(NC(=O)c1nn(CCCCCF)c2ccccc12)C(N)=O (centres unmarked)"
  ASSAY_TARGET: "Antibody to AB-Pinaca-KLH (raised against immunogen 2 of Example 6)"
  MEASURED_METRIC: "OD (absorbance at 450 nm)"
  ASSAY_VALUE: 0.227
- MOLECULE: "CC(C)C(NC(=O)c1nn(CCCCC(=O)O)c2ccccc12)C(N)=O (centres unmarked)"
  ASSAY_TARGET: "Antibody to AB-Pinaca-KLH (raised against immunogen 2 of Example 6)"
  MEASURED_METRIC: "OD (absorbance at 450 nm)"
  ASSAY_VALUE: 0.317
- MOLECULE: "CC(C)C(NC(=O)c1nn(Cc2ccc(F)cc2)c2ccccc12)C(N)=O (centres unmarked)"
  ASSAY_TARGET: "Antibody to AB-Pinaca-KLH (raised against immunogen 2 of Example 6)"
  MEASURED_METRIC: "OD (absorbance at 450 nm)"
  ASSAY_VALUE: 0.337
- MOLECULE: "CC(C)C(NC(=O)c1nn(CCCCCO)c2ccccc12)C(N)=O (centres unmarked) [1-(5-OHpentyl) AB-Pinaca, 1-(5-hydroxypentyl) AB-Pinaca]"
  ASSAY_TARGET: "Antibody to AB-Pinaca-KLH (raised against immunogen 2 of Example 6)"
  MEASURED_METRIC: "OD (absorbance at 450 nm)"
  ASSAY_VALUE: 0.242

Here's the next entry for you.
Inquiry: What OD (absorbance at 450 nm) value was documented for this molecule, CCCCCn1nc(C(=O)NC(C(N)=O)C(C)C)c2ccccc21 (centres unmarked) ?
Reply text: 0.267

* * *

The compounds listed here are annotated with their B/Bo (Percentage B/B0).
tested on: Antibody to AB-Pinaca-KLH (raised against immunogen 2 of Example 6); test: Competitive ELISA characterising antibodies to AB-Pinaca-KLH with Tracer-1 (Example 9); assay type: binding; conditions: standard conc 20.00 ng/ml
# unit: % | format: bare number

Here are 3 compounds together with their reported answers.
- COMPOUND: "CC(C)C(NC(=O)c1nn(Cc2ccc(F)cc2)c2ccccc12)C(N)=O (centres unmarked)"
  MEASURED_METRIC: "B/Bo (Percentage B/B0)"
  ASSAY_VALUE: 15.7
- COMPOUND: "CCCCCn1nc(C(=O)NC(C(N)=O)C(C)C)c2ccccc21 (centres unmarked)"
  MEASURED_METRIC: "B/Bo (Percentage B/B0)"
  ASSAY_VALUE: 12.2
- COMPOUND: "CC(C)C(NC(=O)c1nn(CCCCC(=O)O)c2ccccc12)C(N)=O (centres unmarked)"
  MEASURED_METRIC: "B/Bo (Percentage B/B0)"
  ASSAY_VALUE: 14.5

Inquiry: Form field - read-out: B/Bo (Percentage B/B0); system: Antibody to AB-Pinaca-KLH (raised against immunogen 2 of Example 6); submitted item: CC(C)C(NC(=O)c1nn(CCCCCF)c2ccccc12)C(N)=O (centres unmarked)
Reply text: 10.1

Inquiry: Query for Antibody to AB-Pinaca-KLH (raised against immunogen 2 of Example 6): what B/Bo (Percentage B/B0) does the record show for CC(C)C(NC(=O)c1nn(CCCCCO)c2ccccc12)C(N)=O (centres unmarked) [1-(5-OHpentyl) AB-Pinaca, 1-(5-hydroxypentyl) AB-Pinaca] ?
Reply text: 11.8

* * *

tested on: AB-PINACA antibody (raised against immunogen 2 of Example 6); assay: AB-PINACA ELISA, final validated kit with Tracer-2 (Example 10), specificity; format: binding; conditions: AB-PINACA N-Pentanoic acid = 100
MEASURED_METRIC: % Cross-Reactivity (%)
Report as a plain number; the unit % is understood.

- COMPOUND: "CC(C)C(NC(=O)c1nn(CCCC(O)CF)c2ccccc12)C(N)=O (centres unmarked)"
  ASSAY_TARGET: "AB-PINACA antibody (raised against immunogen 2 of Example 6)"
  % Cross-Reactivity / %: 24.1
- COMPOUND: "CC(C)C(NC(=O)c1nn(Cc2ccc(F)cc2)c2ccccc12)C(=O)O (centres unmarked)"
  ASSAY_TARGET: "AB-PINACA antibody (raised against immunogen 2 of Example 6)"
  % Cross-Reactivity / %: 4.5

Inquiry: Given the compound CC(C)(C)C(NC(=O)c1nn(CCCCCF)c2ccccc12)C(N)=O (centres unmarked) , what is its reported % Cross-Reactivity?
Reply text: 9.8

Inquiry: Form field: reported % Cross-Reactivity of CC(C)C(NC(=O)c1nn(CCCCC(=O)O)c2ccccc12)C(N)=O (centres unmarked)
Reply text: 100

* * *

System: Antibody to AB-Pinaca-KLH (raised against immunogen 2 of Example 6)
Test: Competitive ELISA characterising antibodies to AB-Pinaca-KLH with Tracer-1 (Example 9)
Format: binding
Conditions: standard conc 2.50 ng/ml
Experimental: The wells of an enhanced binding 96 well polystyrene microtitre plate were coated with IgG fraction of antiserum raised to AB-Pinaca-KLH (Immunogen 2 of Example 6), diluted in 10 mM Tris, pH8.5 (125 μl/well). The appropriate antibody coating dilution was determined using standard ELISA checkerboard techniques. […] The appropriate dilution of tracer was also determined using standard ELISA checkerboard techniques. […] The absorbance was measured at 450 nm using a microtitre plate reader. […]
Overview of recorded OD (absorbance at 450 nm) for various molecules
Keep the answer to the number alone.

Check out these entries, answers already filled in.
- MOLECULE: "CC(C)C(NC(=O)c1nn(Cc2ccc(F)cc2)c2ccccc12)C(N)=O (centres unmarked) [AB-Fubinaca]"
  ASSAY_TARGET: "Antibody to AB-Pinaca-KLH (raised against immunogen 2 of Example 6)"
  OD (absorbance at 450 nm): 0.915
- MOLECULE: "CC(C)C(NC(=O)c1nn(CCCCC(=O)O)c2ccccc12)C(N)=O (centres unmarked) [AB-Pinaca pentanoic acid]"
  ASSAY_TARGET: "Antibody to AB-Pinaca-KLH (raised against immunogen 2 of Example 6)"
  OD (absorbance at 450 nm): 0.926
- MOLECULE: "CC(C)C(NC(=O)c1nn(CCCCCF)c2ccccc12)C(N)=O (centres unmarked) [5-fluoro AB-Pinaca, 5-fluoropentyl AB-Pinaca]"
  ASSAY_TARGET: "Antibody to AB-Pinaca-KLH (raised against immunogen 2 of Example 6)"
  OD (absorbance at 450 nm): 0.629

Inquiry: Can you share its OD (absorbance at 450 nm)? I mean this molecule: CCCCCn1nc(C(=O)NC(C(N)=O)C(C)C)c2ccccc21 (centres unmarked) [AB-Pinaca]
Reply text: 0.778

Inquiry: So what does the record say about OD (absorbance at 450 nm) for CC(C)C(NC(=O)c1nn(CCCCCO)c2ccccc12)C(N)=O (centres unmarked) [1-(5-OHpentyl) AB-Pinaca, 1-(5-hydroxypentyl) AB-Pinaca] ?
Reply text: 0.690

Data provenance is patent US10509046B2.
